Target: T1, human IL-12 (human, UniProt P29460 23-328; P29459 23-219)
T1 construct: Recombinant (Peprotech); FLAG-tagged IL-12 in the flow cytometry assays, biotinylated in the IL-12Rβ2 assay; also called hIL-12
T1 sequence 1: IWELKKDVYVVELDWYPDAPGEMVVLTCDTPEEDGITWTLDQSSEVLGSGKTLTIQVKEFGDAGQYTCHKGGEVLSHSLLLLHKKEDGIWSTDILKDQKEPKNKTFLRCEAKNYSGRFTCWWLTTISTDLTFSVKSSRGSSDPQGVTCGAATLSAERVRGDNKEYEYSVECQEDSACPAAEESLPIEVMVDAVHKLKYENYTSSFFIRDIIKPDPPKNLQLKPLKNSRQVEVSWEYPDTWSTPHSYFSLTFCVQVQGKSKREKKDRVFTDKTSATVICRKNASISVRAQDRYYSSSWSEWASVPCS
T1 sequence 2: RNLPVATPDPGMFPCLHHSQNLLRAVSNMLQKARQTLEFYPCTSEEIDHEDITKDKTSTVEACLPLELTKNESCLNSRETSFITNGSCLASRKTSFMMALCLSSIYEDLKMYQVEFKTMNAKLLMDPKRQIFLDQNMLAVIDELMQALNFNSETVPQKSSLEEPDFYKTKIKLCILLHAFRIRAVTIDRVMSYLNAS
Assay: SPR, IgG on Protein A
Would you kindly list Kd for each of these binders?
Express the result in nM but write the number alone.

Request: Find the recorded Kd belonging to Antibody 192 (antibody, human IgG1, kappa, V domains shown) VH: QVQLVQSGAEVKKPGASVKVSCKASGYTLTDYYLHWVRQAPGQGLEWMGWIDPENGDTEYAPKFQGRVTMTTDTSTSTAYMELRSLRSDDTAVYYCAANKELRYFDVWGQGTMVTVSS VL: DIQMTQSPSSVSASVGDRVTITCRASQSISINLHWYQQKPGKAPKLLIYFASQSISGVPSRFSGSGSGTDFSLTINSLQTEDFATYYCQQSNSFPLTFGGGTKVEIKR and report it.
Response: 0.0855

Request: How about this binder: Antibody 194 (antibody, human IgG1, kappa, V domains shown) VH: QVQLVQSGAEVKKPGASVKVSCKASGYTLTDYYLHWVRQAPGQGLEWMGWIDPENGDTESAPKFQGRVTMTTDTSTSTAYMELRSLRSDDTAVYYCAANKELRYFDVWGQGTMVTVSS VL: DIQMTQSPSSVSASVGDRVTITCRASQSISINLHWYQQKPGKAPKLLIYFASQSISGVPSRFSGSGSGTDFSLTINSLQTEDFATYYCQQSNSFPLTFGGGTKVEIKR
Response: 0.0927

Request: What do you get for Antibody 190 (antibody, human IgG1, kappa, V domains shown) VH: QVQLVQSGAEVKKPGASVKVSCKASGYTFTDYYLHWVRQAPGQGLEWMGWIDPENGDTEYAPKFQGRVTMTTDTSTSTAYMELRSLRSDDTAVYYCNANKELRYFDVWGQGTMVTVSS VL: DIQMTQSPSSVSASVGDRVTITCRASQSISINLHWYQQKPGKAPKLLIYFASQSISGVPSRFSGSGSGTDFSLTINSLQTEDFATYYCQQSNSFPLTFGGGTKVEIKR ?
Response: 0.217
